assay-system: TAG72 positive bovine submaxillary mucin (BSM) (bovine)
protocol: relative affinity constant from competition RIA on BSM
quantity: fold less than the Ka of HuCC49 (fold)
Expressed in fold, but write only the number.

For orientation, consider the following solved cases.
{"columns": ["binder", "fold less than the Ka of HuCC49 (fold)"],
 "data": [
  ["HuCC49 CDR variant H-2 (antibody, V domains shown) VH: QVQLVQSGAEVVKPGASVKISCKASGYTFTDHAIHWVKQNPGQRLEWIGWINAGNGNTKYSQKFQGKATLTADTSASTAYVELSSLRSEDTAVYFCTRSLNMAYWGQGTLVTVSS VL: DIVMSQSPDSLAVSLGERVTLNCKSSQSLLYSGNQKNYLAWYQQKPGQSPKLLIYWASARESGVPDRFSGSGSGTDFTLTISSVQAEDVAVYYCQQYYSYPLTFGAGTKLELK", 300],
  ["HuCC49 CDR variant L-1,2 (antibody, V domains shown) VH: QVQLVQSGAEVVKPGASVKISCKASGYTFTDHAIHWVKQNPGQRLEWIGYFSPGNDDFKYNERFKGKATLTADTSASTAYVELSSLRSEDTAVYFCTRSLNMAYWGQGTLVTVSS VL: DIVMSQSPDSLAVSLGERVTLNCKSSQSVLYSSNSKNYLAWYQQKPGQSPKLLIYWASTRESGVPDRFSGSGSGTDFTLTISSVQAEDVAVYYCQQYYSYPLTFGAGTKLELK", 2]
]}

Next item in the queue.
The measured fold less than the Ka of HuCC49 associated with HuCC49 CDR variant L-1 (antibody, V domains shown) VH: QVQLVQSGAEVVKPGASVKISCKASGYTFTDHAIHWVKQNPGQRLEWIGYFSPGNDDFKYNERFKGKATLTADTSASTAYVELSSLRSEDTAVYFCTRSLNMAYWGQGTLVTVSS VL: DIVMSQSPDSLAVSLGERVTLNCKSSQSVLYSSNSKNYLAWYQQKPGQSPKLLIYWASARESGVPDRFSGSGSGTDFTLTISSVQAEDVAVYYCQQYYSYPLTFGAGTKLELK reads 2
